Experimental System: PAK1 (Homo sapiens)
Sequence (Q13153 whole entry): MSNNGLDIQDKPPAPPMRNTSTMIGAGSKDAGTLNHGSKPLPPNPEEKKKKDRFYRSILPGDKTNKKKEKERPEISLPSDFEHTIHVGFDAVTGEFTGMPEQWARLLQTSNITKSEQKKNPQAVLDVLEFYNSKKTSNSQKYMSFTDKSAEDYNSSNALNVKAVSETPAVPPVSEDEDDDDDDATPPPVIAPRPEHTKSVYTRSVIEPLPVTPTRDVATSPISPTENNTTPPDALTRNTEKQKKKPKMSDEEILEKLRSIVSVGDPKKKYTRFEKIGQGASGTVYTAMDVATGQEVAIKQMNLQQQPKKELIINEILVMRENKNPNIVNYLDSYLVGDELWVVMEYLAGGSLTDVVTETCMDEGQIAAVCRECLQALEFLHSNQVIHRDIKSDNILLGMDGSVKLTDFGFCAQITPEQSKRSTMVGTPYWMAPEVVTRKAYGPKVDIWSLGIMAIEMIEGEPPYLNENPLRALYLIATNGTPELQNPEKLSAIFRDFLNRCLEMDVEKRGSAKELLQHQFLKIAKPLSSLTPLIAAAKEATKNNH
Test Description: Cu-binding assay with kinase
Condition Info: read-out: Kd, copper binding to PAK1
Observable: Kd
Show the value, then the unit it is measured in.

Any idea what Kd was measured for [Cu+2] [copper] ?
15 nM

----------
Experimental System: PTP1B (Homo sapiens)
Sequence (P18031 1-435): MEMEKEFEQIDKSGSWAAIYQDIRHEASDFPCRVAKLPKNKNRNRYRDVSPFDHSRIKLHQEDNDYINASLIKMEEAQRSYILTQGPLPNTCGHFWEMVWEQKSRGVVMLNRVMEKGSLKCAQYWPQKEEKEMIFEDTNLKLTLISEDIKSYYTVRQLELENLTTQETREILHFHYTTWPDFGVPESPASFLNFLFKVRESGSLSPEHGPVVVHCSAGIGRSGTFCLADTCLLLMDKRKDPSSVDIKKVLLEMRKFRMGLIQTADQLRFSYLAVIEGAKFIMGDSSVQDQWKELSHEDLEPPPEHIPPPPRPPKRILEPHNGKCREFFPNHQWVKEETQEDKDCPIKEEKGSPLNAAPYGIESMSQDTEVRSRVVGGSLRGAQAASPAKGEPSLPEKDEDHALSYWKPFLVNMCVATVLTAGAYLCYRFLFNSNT
Test Description: PTP1B inhibition (Ki)
Assay type: biochemical
Observable: pKi
Numbers only, as −log10 of the molar value.

Any idea what pKi was measured for COC(=O)CCC(C)C1CCC2C3C(O)CC4CC(NCCCCNCc5cccnc5)CCC4(C)C3CCC12C (stereo not shown) ?
5.70

----------
Experimental System: MEK1 (Homo sapiens)
Sequence (Q02750 whole entry): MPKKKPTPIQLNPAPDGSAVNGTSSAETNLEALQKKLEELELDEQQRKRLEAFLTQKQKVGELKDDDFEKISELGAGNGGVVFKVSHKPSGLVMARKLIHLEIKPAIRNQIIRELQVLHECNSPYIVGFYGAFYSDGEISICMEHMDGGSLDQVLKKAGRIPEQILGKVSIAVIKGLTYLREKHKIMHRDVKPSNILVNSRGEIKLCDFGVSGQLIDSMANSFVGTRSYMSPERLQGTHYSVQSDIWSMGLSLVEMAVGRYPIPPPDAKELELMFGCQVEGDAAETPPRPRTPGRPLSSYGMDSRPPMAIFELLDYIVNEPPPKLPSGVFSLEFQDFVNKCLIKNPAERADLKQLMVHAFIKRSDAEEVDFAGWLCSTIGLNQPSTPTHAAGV
Observable: Kd (nM)
One number for each entry, in nM.

Any idea what Kd was measured for [Cu+2] ?
5

----------
Experimental System: PTP1B1-405 (Homo sapiens, UniProt P18031)
Construct: PTP1B1-405 (the long form of PTP1B which contains the extended C-terminal segment); made in house; host or cells: Escherichia coli BL21 (DE3)-RIL
Test Description: PTP1B phosphatase activity assay, DiFMUP substrate, long form
Format: biochemical
Condition Info: long form PTP1B1-405, DiFMUP substrate (FIG. 1); read-out: IC50, inhibition of the phosphatase
Observable: IC50 (nM)
One number for each entry, in nM.

Any idea what IC50 was measured for COC(=O)CCC(C)C1CCC2C3C(O)CC4CC(NCCCCNCc5ccccn5)CCC4(C)C3CCC12C (stereo not shown) ?
100

----------
Experimental System: PTP1B-L192A/S372P (Homo sapiens, UniProt P18031, L192A/S372P)
Sequence (P18031 1-435 L192A/S372P): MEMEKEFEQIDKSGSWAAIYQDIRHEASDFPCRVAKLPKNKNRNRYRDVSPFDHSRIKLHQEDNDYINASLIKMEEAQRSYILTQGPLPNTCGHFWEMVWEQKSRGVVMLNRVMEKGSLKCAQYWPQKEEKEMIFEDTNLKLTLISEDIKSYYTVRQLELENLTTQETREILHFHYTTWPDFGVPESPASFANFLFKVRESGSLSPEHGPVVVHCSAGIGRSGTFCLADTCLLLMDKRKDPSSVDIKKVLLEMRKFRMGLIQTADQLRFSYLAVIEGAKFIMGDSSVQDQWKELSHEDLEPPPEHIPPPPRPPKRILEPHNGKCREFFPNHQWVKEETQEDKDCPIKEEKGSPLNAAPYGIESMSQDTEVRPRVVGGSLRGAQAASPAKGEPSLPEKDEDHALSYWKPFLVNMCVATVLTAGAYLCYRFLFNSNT
Test Description: Phosphatase assay with MSI-1436-resistant mutant
Condition Info: read-out: IC50 against PTP1B-L192A/S372P
Observable: pIC50
Give bare numbers, as −log10 of the molar value.

Any idea what pIC50 was measured for COC(=O)CCC(C)C1CCC2C3C(O)CC4CC(NCCCCNCc5ccccn5)CCC4(C)C3CCC12C (stereo not shown) [DPM-1001] ?
6.00
